- Substrate: PET
- Measurement protocol: Proxy for plastic degradation [kcat] (s⁻¹)
- Study conditions: pH 9
Observed property: Proxy for plastic degradation
Lab note: record the figure alone, no unit after it.

Solved entries (count: 3):
Protein: unnamed (protein) MNFPRASRLMQAAVLGGLMAVSAAATAQTNPYARGPNPTAASLEASAGPFTVRSFTVSRPSGYGAGTVYYPTNAGGTVGAIAIVPGYTARQSSIKWWGPRLASHGFVVITIDTNSTLDQPSSRSSQQMAALRQVASLNGTSSSPIYGKVDTARMGVMGHSMGGGGSLISAANNPSLKAAAPQAPWDSSTNFSSVTVPTLIFAAENDSIAPVNSSALPIYDSMSRNAKQFLEINGGSHFAANSGNSNQALIGKKGVAWMKRFMDNDTRYSTFACENPNSTRVSDFRTANCS
Proxy for plastic degradation: 0
//
Protein: unnamed (protein) MDGVLWRVRTAALMAALLALAAWALWASPSVEAQSNPYQRGPNPTRSALTADGPFSVATYTVSRLSVSGFGGVIYYPTGTSLTFGGIAMSPGYTADASSLAWLGRRLASHGFVVLVINTNSRFDYPDSRASQLSAALNYLRTSSPSAVRARLDANRLAVAGHSMGGGGTLRIAEQNPSLKAAVPLTPWHTDKTFNTSVPVLIVGAEADTVAPVSQHAIPFYQNLPSTTPKVYVELDNASHFAPNSNNAAISVYTISWMKLWVDNDTRYRQFLCNVNDPALSDFRTNNRHCQCQ
Proxy for plastic degradation: 0.01
//
Protein: unnamed (protein) MDGVLWRVRTAALMAALLALAAWALWASPSVEAQSNPYQRGPNPTRSALTADGPFSVATYTVSRLSVSGFGGVIYYPTGTSLTFGGIAMSPGYTADASSLAWLGRRLASHGFVVLVINTNSRFDYPDSRASQLSAALNYLRTSSPSAVRARLDANRLAVAGWSMGGGGTLRIAEQNPSLKAAVPLTPWHTDKTFNTSVPVLIVGAEADTVAPVSQHAIPFYQNLPSTTPKVYVELDNASHFAPNSNNAAISVYTISWMKLWVDNDTRYRQFLCNVNDPALSDFRTNNRHCQCQ
Proxy for plastic degradation: 0.003

Field: next protein
Recorded Proxy for plastic degradation (protein unnamed (protein) MNFPRASRLMQAAVLGGLMAVSAAATAQTNPYARGPNPTAASLEASAGPFTVRSFTVSRPSGYGAGTVYYPTNAGGTVGAIAIVPGYTARQSSIKWWGPRLASHGFVVITIDTNSTLDQPSSRSSQQMAALRQVASLNGTSSSPIYGKVDTARMGVMGHSMGGGGSLISAANNPSLKAAAPQAPWDSSTNFSSVTVPTLIFACENDSIAPVNSSALPIYDSMSRNAKQFLEINGGSHSCANSGNSNQALIGKKGVAWMKRFMDNDTRYSTFACENPNSTRVSDFRTANCS ): 0.03
